# procedureText: NCI Yeast Anticancer Drug Screen. Data for the cln2 rad14 strain (AID 165);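 also: 0% = growth equal to vehicle treated cultures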
# runConditions: S. cerevisiae cln2 rad14 strain, at 50.0 µM (retest, dose inferred, filed as 5.0), stronger effect = higher value
About 79,000 compounds went through this panel and 15% of them were active in at least one assay; those are over-represented in the sample as a whole.
Hi, to clarify the labels: fulfilled covers growth inhibition from 20% upward, not fulfilled covers anything below 20%.

API: above_or_equal(metric=growth inhibition, cutoff=20%) for item O=[N+]([O-])c1cccc2nc3ccccc3c(NCCCn3ccnc3[N+](=O)[O-])c12
fulfilled

Dear colleague, could you confirm whether C=C1CCC(O)C/C1=C/C=C1\CCCC2(C)C1CCC2C(C)CCCC(C)C (stereo not given) has growth inhibition at or above 20%?
not fulfilled

Test whether the compound CCc1ccc2c(c1)N(CC(C)CN(C)C)c1ccccc1S2 (stereo not given) records growth inhibition of 20% or higher.
fulfilled

Threshold query (growth inhibition >= 20%) on Cc1nc2ccc(N=NN(C)C)cc2[nH]1
fulfilled

Could you tell me if the measured growth inhibition of COc1cc(O)c2c(c1O)C(=O)c1cc(C)ncc1C2=O reaches 20% or more?
not fulfilled

* * *

# procedureText: NCI Yeast Anticancer Drug Screen. Data for the sgs1 strain (AID 173);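 also: 0% = growth of vehicle-only control cultures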
# runConditions: S. cerevisiae sgs1 mutant, at 1.2 µM, stronger effect = higher value
This is part of a sample that, as a whole, favours compounds with a hit. Of some 79,000 tested, about 15% had one in any assay.
Assign class by growth inhibition: not lower than 20% means label 1; lower than 20% means label 0.

Hi team, for Nc1ncnc2c1ncn2C1OC(CO)CC1O (stereo not drawn) , is the recorded growth inhibition at or above 20%?
label 0

Hello, I need to know if COc1nc2c(c(=O)n1C)N=C(c1ccccc1)[C@H](C(CC(=O)c1ccccc1)c1ccccc1)C(c1ccccc1)N2 (stereo partly drawn) has measured growth inhibition not below 20%. Thanks!
label 0

Decide: growth inhibition of Oc1[nH]c2ccccc2c1N=NC(=S)N1CCCCC1 >= 20%?
label 0

In plain terms: is recorded growth inhibition at least 20% for O=P(NC1CCCCC1)(OCc1ccccc1)OCc1ccccc1 ?
label 0

Could you please find out whether NC1CCCCC1N.Nc1c(N=Nc2ccc(-c3ccc(N=Nc4cc(S(=O)(=O)[O-])c5ccccc5c4N)cc3)cc2)cc(S(=O)(=O)[O-])c2ccccc12.[OH3+].[OH3+].[Pt+4] has growth inhibition that meets 20% or exceeds it?
label 0

Please tell me: is the compound O=C1c2cccnc2C(=O)C2C3C=CC(C3)C12 (stereo not drawn) at or over 20% in terms of growth inhibition?
label 0

Is growth inhibition for CC1CC[C@]2(C(=O)O)CCC3(C)C(=CC(=O)C4[C@@]5(C)CCC(=O)C(C)(C)C5CC[C@]43C)[C@@H]2[C@H]1C (stereo partly drawn) at or above 20%?
label 1

Would you say O=[N+]([O-])c1cccc2nc3ccccc3c(NCCC[N+]3([O-])CCCCC3)c12 shows growth inhibition at minimum 20%?
label 1

* * *

# procedureText: NCI Yeast Anticancer Drug Screen. Data for the bub3 strain (AID 167)
# runConditions: S. cerevisiae bub3 mutant strain, at 50.0 µM, stronger effect = higher value
This is part of a sample that, as a whole, favours compounds with a hit. Of some 79,000 tested, about 15% had one in any assay.
Give measured growth inhibition for each item. Keep answers brief.
Your answer should be a plain number; it is taken to be in %.

Please give the measured growth inhibition for this molecule: O=C(/C=C\c1cccc(C(F)(F)F)c1)c1ccccc1
26.1

I am curious: what growth inhibition value has been reported for Cc1c(-c2ccccn2)ccc2ccccc12 ?
94.2

Bench note: what growth inhibition did OCc1ccccc1Cc1ccccc1 show?
65.8

Reported growth inhibition, molecule Nc1n[n+]([O-])c2ccc(Cl)cc2[n+]1[O-] : ____
82.8

I have this molecule here, CN(CCN(C)Cc1ccccc1)Cc1ccccc1 , and I need its recorded growth inhibition.
60.5

Can you share its growth inhibition? I mean this molecule: Cc1ccccc1N=C(NO)c1ccccc1
76.8

If you can, please state the reported growth inhibition value of CC1OC(O[C@H]2/C=C/C=C/C=C/C=C/C=C/C=C/C=C/[C@H](C)[C@@H](O)[C@@H](C)[C@H](C)OC(=O)C[C@H](O)C[C@H](O)CC[C@@H](O)[C@H](O)C[C@H](O)C[C@]3(O)C[C@H](O)[C@@H](C(=O)O)[C@H](C2)O3)C(O)C(N)C1O (some centres undefined) .
98.8

# growth inhibition lookup, item CCOC(=O)COc1c(OC)cc(C2C3=C(COC3=O)Oc3cc4c(cc32)OCO4)cc1OC (centres undefined)
28.2

Look at this molecule and give its reported growth inhibition. Nc1nc2ccc(NCc3ccc(C(=O)NC(CCC(=O)O)C(=O)O)cc3)cc2c(=O)[nH]1 (centres undefined)
30.9

Field request: growth inhibition | item: CCCC/C=C/C(C)(C(=O)OCC)C(=O)OCC
67.8

Which growth inhibition is listed for CN(C)c1ccc(C2CC(C)(O)Oc3cc4c(cc32)OCO4)cc1 (centres undefined) ?
27.9

What does the record list as growth inhibition for Cc1cccc(C(C)(C)C)c1NC(=O)C(C#N)C1=C(Cl)C(=O)c2ccccc2C1=O (centres undefined) ?
92.3

Quick one: growth inhibition for CC1=NOC(=O)/C1=C/c1ccc2c(c1)OCO2 ?
70.5

Item under review: CCN(CC)Cc1cc(Nc2c3ccccc3nc3c2[nH]c2ccccc23)cc(CN(CC)CC)c1O . Reported growth inhibition?
-10.2

What measured growth inhibition goes with Cc1cc(C)nc(NS(=O)(=O)c2ccc(Nc3c4ccccc4nc4c(C(=O)NCCO)cccc34)cc2)n1 ?
0

growth inhibition lookup needed for COC(=O)CCC(NC(=S)N/N=C(\C)c1ccccn1)C(=O)OC (centres undefined) , thanks.
81.3

Query (molecule): CCOC(=O)/C(=C\c1ccc(C#N)cc1)C(C)=O ; field requested: growth inhibition
81.2

Dear colleague, I am looking for the recorded growth inhibition of the following molecule: Cc1ccc(S/C(=C\C(=O)O)c2ccccc2)cc1
39.5

What measured growth inhibition goes with CC1=C(C(=O)NCc2ccccc2)C(c2ccccc2)C(C(=O)NCc2ccccc2)=C(C)N1 ?
87.8

// returns reported growth inhibition for input Cc1cc(C(C)(C)CC(C)(C)C)ccc1O
92.4

Item Oc1cccc2cc(Cl)cnc12 has what recorded growth inhibition?
91.8

Find the recorded growth inhibition belonging to O=C1C=C(N2CCN(c3ccccn3)CC2)C(=O)c2c(O)ccc(O)c21 and report it.
88.8

# input molecule: O=C(NO)Nc1cc(Cl)cc(Cl)c1 ; wanted: its growth inhibition
98.8

Quick check: growth inhibition of OC1(c2ccccc2)CCCc2ccc(Cl)cc21 (centres undefined) ?
-16.4
